Source of measurements: ChEMBL document CHEMBL3988442

Parameter Percent Effect: see the listing below.
System: Wolbachia pipientis
ASSAY NOTES: Anti-Wolbachia Cell-Based Screen
Assay type: functional
Parameters: scale not given: in the data most compounds retested in dose-response had high values
CONDITION NOTES: 5 µM
In all, about 48,000 compounds went through this assay and about 13,000 (27%) showed an effect of 50% or more. Some of the results follow.
ASSAY ENDPOINT: Percent Effect (%)

INSERT INTO assay_data (compound, unit_abbrev, numeric_readout) VALUES
  ('CC(C)c1noc(C[S+]([O-])CC(=O)Nc2cc(F)ccc2F)n1 (stereo not drawn)', '%', -11.5),
  ('Cc1nc(N2CCC(C(O)c3nccn3C)CC2)c2c(C)noc2n1 (stereo not drawn)', '%', 0.7849),
  ('O=C(Cc1ccccc1C(F)(F)F)N1CCC2(CC1)OCCCC2O (stereo not drawn)', '%', 121.4),
  ('CC(C(=O)N1CCCC1)N1CCC(c2nccn2CC2CCC2)CC1 (stereo not drawn)', '%', -1.675),
  ('Cn1cc(N2CCCC(Nc3ccc4c(c3)CCC(=O)N4)C2=O)cn1 (stereo not drawn)', '%', -0.6283),
  ('CCSCCC(=O)NS(=O)(=O)c1ccc2c(c1)OCCO2', '%', 5.287),
  ('O=C([C@H]1COC[C@H]2CN(CC3CC3)C[C@H]21)N1CCOCC1', '%', 21.74),
  ('CC(=O)N1CCCC1c1nc(CN(C)C(=O)C(C)C)cc(N(C)C)n1 (stereo not drawn)', '%', 95.56),
  ('Cc1nccn1CCCN1CCCC(c2nccn2CC2CCC2)C1 (stereo not drawn)', '%', 94.54),
  ('Cc1nsc(N2CCc3sccc3C2)n1', '%', 15.05),
  ('c1cn(CC2CC2)c(C2CCN(CCC3CCOC3)CC2)n1 (stereo not drawn)', '%', -2.095),
  ('CN(C)C(=O)c1ccn(-c2ccc3ccccn23)n1', '%', 2.89),
  ('CCN(C)S(=O)(=O)N(CC)Cc1cccc(-c2ccncc2)c1', '%', 31.71);

----------
Listed here: items and their measured Percent Effect.
Test system: Wolbachia pipientis
ASSAY NOTES: Anti-Wolbachia Cell-Based Screen
Assay type: functional
Parameters: scale not given: in the data most compounds retested in dose-response had high values
CONDITION NOTES: 5 µM
Out of some 48,000 compounds screened, about 13,000 (27%) showed an effect of 50% or more. This is one part of the list.
ASSAY ENDPOINT: Percent Effect (%)

INSERT INTO results (molecule, assay_endpoint, unit_abbrev, numeric_readout) VALUES
  ('CC(Oc1ccc(F)c(F)c1)C(=O)N(CC(N)=O)C1CCCC1 (stereo not drawn)', 'Percent Effect', '%', 5.493),
  ('CC1(c2ccccc2)CCCN(Cc2nnc(-c3cccnc3)o2)C1 (stereo not drawn)', 'Percent Effect', '%', -17.9),
  ('O=C(NC[C@H]1OC[C@@H](NC(=O)C2CCCC2)[C@@H]1O)c1ccncc1', 'Percent Effect', '%', 0),
  ('Cc1cncc(C(=O)N2CCNCC2C(=O)NCc2ccncc2)c1 (stereo not drawn)', 'Percent Effect', '%', -0.08971),
  ('CN(CC1CCCCO1)C(=O)c1ccnc(OC2CCC2)c1 (stereo not drawn)', 'Percent Effect', '%', 4.497),
  ('O=C(O)c1c(-c2ccncc2)ncc2c1CCN(Cc1ccco1)C2', 'Percent Effect', '%', 103.7),
  ('CCNC(=O)CNS(=O)(=O)c1cc(Br)ccc1F', 'Percent Effect', '%', -3.098),
  ('CC(Cn1cccn1)NC(=O)NCc1cccnc1OC1CCCC1 (stereo not drawn)', 'Percent Effect', '%', 11.91);
